src = patent US7064139B2

system: Davis strain CMV; assay: Reduction of CMV-induced cytopathicity in HEL cells; type: cell-based, human cytomegalovirus (HCMV); conditions: HEL cells, virus-induced cytopathicity after seven days
Readout Name: Antiviral EC50 (ug/ml) Davis strain CMV

                                    compound      result
 0  O=S(=O)(Cc1cccc(Br)c1)c1cccc[n+]1[O-] [Compound 38]   5.0 µg/mL
 1  Cc1cc[n+]([O-])c(S(=O)(=O)Cc2ccc(Cl)cc2)c1 [Compound 129]    >5 µg/mL
 2  COc1cc(C=C(C#N)Sc2cccc[n+]2[O-])cc(OC)c1OC [Compound 160]   7.0 µg/mL
 3  [O-][n+]1cccc(Cl)c1SCc1ccccc1 [Compound 132]   >50 µg/mL
 4  Cc1ccccc1C(C)S(=O)(=O)c1cccc[n+]1[O-] (centres unmarked) [Compound 104]  34.5 µg/mL
 5  Cc1ccc(CS(=O)(=O)c2cccc[n+]2[O-])c(C)c1 [Compound 52]  12.0 µg/mL
 6  Cc1ccc[n+]([O-])c1S(=O)(=O)Cc1ccccc1Cl [Compound 117]  12.0 µg/mL
 7  COc1ccc(CS(=O)(=O)c2cccc[n+]2[O-])cc1 [Compound 19]  20.0 µg/mL
 8  Cc1ccc(CS(=O)(=O)c2c(C)ccc[n+]2[O-])c(C)c1 [Compound 83]  12.0 µg/mL
 9  Cc1ccc(C)c(CS(=O)(=O)c2cccc[n+]2[O-])c1C [Compound 41]   8.6 µg/mL
10  Cc1ccc[n+]([O-])c1[S+]([O-])Cc1c(Cl)cccc1Cl (centres unmarked) [Compound 138]   >50 µg/mL
11  [O-][n+]1cccc(Cl)c1[S+]([O-])Cc1ccccc1 (centres unmarked) [Compound 136]   4.7 µg/mL
12  O=[N+]([O-])c1ccc(CS(=O)(=O)c2cccc[n+]2[O-])cc1 [Compound 14]   7.0 µg/mL
13  O=S(=O)(Cc1c(Cl)ccc(Cl)c1Cl)c1cccc[n+]1[O-] [Compound 33]   5.0 µg/mL
14  Cc1ccc[n+]([O-])c1S(=O)(=O)C(C)c1ccccc1 (centres unmarked) [Compound 115]   >50 µg/mL
15  Cc1ccc(C[S+]([O-])c2cccc[n+]2[O-])cc1C (centres unmarked) [Compound 89]  20.0 µg/mL
16  Cc1cc[n+]([O-])c([S+]([O-])Cc2ccc(Cl)cc2)c1 (centres unmarked) [Compound 128]   >20 µg/mL
17  Cc1ccc(C)c(C(C)[S+]([O-])c2ccccn2)c1 (centres unmarked) [Compound 163]   >50 µg/mL
18  O=S(=O)(Cc1ccc(-c2ccccc2)cc1)c1cccc[n+]1[O-] [Compound 54]   5.0 µg/mL
19  COc1ccc(CSc2cc(CC(C)C)cc[n+]2[O-])cc1 [Compound 134]  50.0 µg/mL
20  COc1ccc([N+](=O)[O-])cc1CS(=O)(=O)c1cccc[n+]1[O-] [Compound 20]  13.0 µg/mL
21  COc1ccc(Br)c(CS(=O)(=O)c2cccc[n+]2[O-])c1 [Compound 31]  10.0 µg/mL
22  [O-][n+]1ccccc1[S+]([O-])Cc1cccc(C(F)(F)F)c1 (centres unmarked) [Compound 85]   >50 µg/mL
23  Cc1ccc(C)c(C(Cl)S(=O)(=O)c2c(Cl)ccc[n+]2[O-])c1 (centres unmarked) [Compound 125]  31.5 µg/mL
24  Nc1nc2c(ncn2COC(CO)CO)c(=O)[nH]1 [DHPG, reference compound]     1 µg/mL
25  COc1ccc(C[S+]([O-])c2cccc[n+]2[O-])cc1OC (centres unmarked) [Compound 98]  10.0 µg/mL
26  Cc1ccc(C)c(CS(=O)(=O)c2cccc(Cl)[n+]2[O-])c1 [Compound 77]  11.0 µg/mL
27  O=S(=O)(Cc1ccc(CS(=O)(=O)c2cccc[n+]2[O-])cc1)c1cccc[n+]1[O-] [Compound 23]   >20 µg/mL
28  Cc1ccc(C)c(CS(=O)(=O)c2ccc(Cl)c[n+]2[O-])c1 [Compound 94]  12.0 µg/mL
29  Cc1ccc(C)c(CS(=O)(=O)c2cccc(C)[n+]2[O-])c1 [Compound 72]   >50 µg/mL
30  O=S(=O)(Cc1cc2c(cc1Cl)OCO2)c1cccc[n+]1[O-] [Compound 21]  10.0 µg/mL
31  [O-][n+]1c(Cl)cccc1SCc1ccccc1 [Compound 149]  20.0 µg/mL
32  Cc1ccc(C)c(CS(=O)(=O)c2ccccn2)c1 [Compound 150]   >50 µg/mL
33  O=S(=O)(Cc1ccccc1I)c1cccc[n+]1[O-] [Compound 44]   >20 µg/mL
34  Cc1c(Cl)c(Cl)c(CS(=O)(=O)c2cccc[n+]2[O-])c(Cl)c1Cl [Compound 49]   5.0 µg/mL
35  Cc1ccc(C)c(C(C)S(=O)(=O)c2ccccn2)c1 (centres unmarked) [Compound 161]  38.0 µg/mL
36  Cc1ccc(C)c(C(C)S(=O)(=O)c2cc(C)cc(C)[n+]2[O-])c1 (centres unmarked) [Compound 81]   8.6 µg/mL
37  O=S(=O)(Cc1ccc(Cl)cc1Cl)c1cccc[n+]1[O-] [Compound 18]   5.0 µg/mL
